Origin of the recorded values: patent US20250171512A1

The entries below come with measured pERK ICW EC50 values attached.
TARGET_SYSTEM: human FGFR1c together with human beta-Klotho (KLB), stably expressed on CHO Flp-In cells (human), P11362
Sequence (P11362 22-822, chain 1 of 2): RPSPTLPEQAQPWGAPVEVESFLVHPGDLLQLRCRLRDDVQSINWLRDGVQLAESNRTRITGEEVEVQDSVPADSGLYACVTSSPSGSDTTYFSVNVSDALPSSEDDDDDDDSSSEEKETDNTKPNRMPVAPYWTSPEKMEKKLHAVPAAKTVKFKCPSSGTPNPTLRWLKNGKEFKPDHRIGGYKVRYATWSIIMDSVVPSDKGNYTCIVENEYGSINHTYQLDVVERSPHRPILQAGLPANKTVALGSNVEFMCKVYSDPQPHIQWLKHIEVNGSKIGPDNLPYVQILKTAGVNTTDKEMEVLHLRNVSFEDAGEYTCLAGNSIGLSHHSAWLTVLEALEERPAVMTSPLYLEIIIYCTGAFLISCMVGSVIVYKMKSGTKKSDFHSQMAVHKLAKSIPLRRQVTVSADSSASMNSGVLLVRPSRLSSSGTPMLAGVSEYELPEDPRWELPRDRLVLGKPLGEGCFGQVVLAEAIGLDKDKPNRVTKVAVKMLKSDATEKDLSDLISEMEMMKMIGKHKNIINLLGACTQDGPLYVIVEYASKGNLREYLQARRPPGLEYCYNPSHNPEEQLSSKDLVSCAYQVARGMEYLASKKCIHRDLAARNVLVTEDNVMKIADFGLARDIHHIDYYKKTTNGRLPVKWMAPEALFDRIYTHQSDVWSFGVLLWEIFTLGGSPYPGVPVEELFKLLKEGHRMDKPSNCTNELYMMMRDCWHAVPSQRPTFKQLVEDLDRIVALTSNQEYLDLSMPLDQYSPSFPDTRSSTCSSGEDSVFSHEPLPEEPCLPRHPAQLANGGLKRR
Sequence (Q86Z14 whole entry, chain 2 of 2, further chain): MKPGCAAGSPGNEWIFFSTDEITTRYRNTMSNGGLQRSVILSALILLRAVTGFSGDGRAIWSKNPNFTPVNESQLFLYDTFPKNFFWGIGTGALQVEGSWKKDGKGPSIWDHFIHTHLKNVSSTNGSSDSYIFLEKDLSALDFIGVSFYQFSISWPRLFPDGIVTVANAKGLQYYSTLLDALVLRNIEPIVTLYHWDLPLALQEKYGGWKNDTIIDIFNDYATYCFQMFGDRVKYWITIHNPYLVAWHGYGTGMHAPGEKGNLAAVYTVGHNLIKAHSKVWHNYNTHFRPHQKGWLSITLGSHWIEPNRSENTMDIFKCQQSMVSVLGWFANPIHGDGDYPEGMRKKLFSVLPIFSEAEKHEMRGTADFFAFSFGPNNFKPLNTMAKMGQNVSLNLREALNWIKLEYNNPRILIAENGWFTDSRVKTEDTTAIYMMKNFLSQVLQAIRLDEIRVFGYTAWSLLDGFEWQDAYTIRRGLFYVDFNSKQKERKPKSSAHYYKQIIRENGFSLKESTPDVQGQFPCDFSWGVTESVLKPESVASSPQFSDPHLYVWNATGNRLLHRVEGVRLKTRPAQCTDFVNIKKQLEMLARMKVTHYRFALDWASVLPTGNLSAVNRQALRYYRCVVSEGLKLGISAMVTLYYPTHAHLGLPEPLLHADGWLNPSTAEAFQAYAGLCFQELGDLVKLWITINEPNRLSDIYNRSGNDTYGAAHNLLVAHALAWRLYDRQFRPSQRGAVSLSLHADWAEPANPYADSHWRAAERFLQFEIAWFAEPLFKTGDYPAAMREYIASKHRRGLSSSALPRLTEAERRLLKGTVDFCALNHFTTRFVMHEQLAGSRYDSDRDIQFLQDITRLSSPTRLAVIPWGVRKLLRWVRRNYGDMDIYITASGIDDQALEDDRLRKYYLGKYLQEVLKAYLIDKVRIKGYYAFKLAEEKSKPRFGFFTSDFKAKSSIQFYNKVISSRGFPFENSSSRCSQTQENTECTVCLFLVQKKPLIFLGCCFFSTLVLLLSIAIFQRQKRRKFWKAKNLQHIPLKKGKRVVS
ASSAY_TEXT: cell-based or functional assay
# output: bare number, implied unit nmol/L

Query: # get_value(readout='pERK ICW EC50', item= FGF21 P152-H153 deleted (SEQ ID NO: 135), Q9NSA1 29-209 (ligand) GHPIPDSSPLLQFGGQVRQRYLYTDDAQQTEAHLEIREDGTVGGAADQSPESLLQLKALKPGVIQILGVKTSRFLCQRPDGALYGSLHFDPEACSFRELLLEDGYNVYQSEAHGLPLHLPGNKSRDPAPRGPARFLPLPGLPPAPPEPPGILAPQPPDVGSSDPLSMVGPSQGRSPSYAS )
Response: 0.21

Query: Next record, please: FGF21 P152A, H153K, R154K, D155E, P156A, A157S, R159Q (SEQ ID NO: 133), Q9NSA1 29-209 (ligand) GHPIPDSSPLLQFGGQVRQRYLYTDDAQQTEAHLEIREDGTVGGAADQSPESLLQLKALKPGVIQILGVKTSRFLCQRPDGALYGSLHFDPEACSFRELLLEDGYNVYQSEAHGLPLHLPGNKSAKKEASPQGPARFLPLPGLPPAPPEPPGILAPQPPDVGSSDPLSMVGPSQGRSPSYAS
Response: 0.24

Query: Next record, please: FGF21, human (SEQ ID NO: 2), without N-terminal tag, Q9NSA1 29-209 (ligand) HPIPDSSPLLQFGGQVRQRYLYTDDAQQTEAHLEIREDGTVGGAADQSPESLLQLKALKPGVIQILGVKTSRFLCQRPDGALYGSLHFDPEACSFRELLLEDGYNVYQSEAHGLPLHLPGNKSPHRDPAPRGPARFLPLPGLPPAPPEPPGILAPQPPDVGSSDPLSMVGPSQGRSPSYAS
Response: 0.17

Query: Next record, please: FGF21 N149-A162 deleted and replaced by GSHSGS (SEQ ID NO: 138), Q9NSA1 29-209 (ligand) GHPIPDSSPLLQFGGQVRQRYLYTDDAQQTEAHLEIREDGTVGGAADQSPESLLQLKALKPGVIQILGVKTSRFLCQRPDGALYGSLHFDPEACSFRELLLEDGYNVYQSEAHGLPLHLPGGSHSGSRFLPLPGLPPAPPEPPGILAPQPPDVGSSDPLSMVGPSQGRSPSYAS
Response: 0.19

Query: Next record, please: FGF21 G202-R203 deleted (SEQ ID NO: 157), Q9NSA1 29-209 (ligand) GHPIPDSSPLLQFGGQVRQRYLYTDDAQQTEAHLEIREDGTVGGAADQSPESLLQLKALKPGVIQILGVKTSRFLCQRPDGALYGSLHFDPEACSFRELLLEDGYNVYQSEAHGLPLHLPGNKSPHRDPAPRGPARFLPLPGLPPAPPEPPGILAPQPPDVGSSDPLSMVGPSQSPSYAS
Response: 1.63

Query: Next record, please: G-FGF21 (SEQ ID NO: 3), without N-terminal tag, Q9NSA1 29-209 (ligand) GHPIPDSSPLLQFGGQVRQRYLYTDDAQQTEAHLEIREDGTVGGAADQSPESLLQLKALKPGVIQILGVKTSRFLCQRPDGALYGSLHFDPEACSFRELLLEDGYNVYQSEAHGLPLHLPGNKSPHRDPAPRGPARFLPLPGLPPAPPEPPGILAPQPPDVGSSDPLSMVGPSQGRSPSYAS
Response: 0.24
